Assay: probe aDKK1 binding to arrayed compounds – biochemical, biotinylated probe, 635/667 nm fluorescence, primary screen (AID 1099);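 also: score merges 667nm spot fluorescence with signal to noise across triplicate slides; reference of the scale not given here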
Conditions: small-molecule microarray, higher = more signal

{"compound": "CCCC=C(CCC)[C@@H](NS(=O)(=O)CC)c1ccccc1", "composite z-score": 0.303}
{"compound": "COc1ccc(C(=O)Nc2ccc(CN3C(=O)[C@@]4(O[C@@H](CC(=O)N5Cc6ccccc6C[C@H]5CO)[C@H]([Si](C)(C)c5ccc(OC)cc5)[C@H]4C)c4ccccc43)cc2)cc1", "composite z-score": -0.351}
{"compound": "C=CCNC(=O)[C@H]1[C@@H]2C(=O)O[C@@H](c3ccccc3)[C@@H](c3ccccc3)N2[C@@H](c2ccc(O)cc2)[C@]12C(=O)N(C(=O)OCCOC)c1ccc(C#CC3(O)CCCCCC3)cc12", "composite z-score": 0.263}
{"compound": "C=CC[C@]1(C(=O)N(C)C)N=C(c2ccc(OCCCO)cc2)O[C@H]1c1ccccc1", "composite z-score": 0.135}
{"compound": "CC1C=C(CCCO)C=C(C(=O)OCCS(C)(=O)=O)C(C(=O)OCCS(C)(=O)=O)=CN1Cc1cccc(OC(F)(F)F)c1 (configuration not stated)", "composite z-score": 0.111}
{"compound": "CN(C)C(=O)[C@]1(Cc2ccccc2N=[N+]=[N-])N=C(c2ccc(OCCCO)cc2)O[C@@H]1c1ccccc1CN=[N+]=[N-]", "composite z-score": 0.189}
{"compound": "CCCC[C@H]1OB(O)C[C@H]2C1=C(COc1ccccc1)Cn1c(=O)n(-c3ccccc3)c(=O)n12", "composite z-score": -0.149}

* * *

Assay: plasmodial surface anion channel blockers, osmotic lysis – cell-based, P. falciparum Indochina, OD700, 1 h, primary screen (AID 1154)
Conditions: P. falciparum Indochina infected RBC osmotic lysis, called active from +8 up or from −8 down
Active and inactive are the calls of the source.
Outcomes: active, inactive

{"structureSmiles": "COC(=O)[C@@]1(Cc2ccccc2)[C@H]2c3cc(C(=O)N4CCCC4)n(Cc4ccccc4)c3C[C@H]2CN1C(=O)c1ccccc1", "cat": "inactive"}
{"structureSmiles": "COc1ccc(C(=O)Nc2ccc(CN3C(=O)[C@@]4(O[C@@H](CC(=O)N5Cc6ccccc6C[C@H]5CO)[C@H]([Si](C)(C)c5ccc(OC)cc5)[C@H]4C)c4ccccc43)cc2)cc1", "cat": "inactive"}
{"structureSmiles": "CCOC(=O)C[C@H]1[C@H](OC(=O)c2ccccc2-c2ccccc2)[C@@H](NC(=O)c2ccccc2)c2cc(OCCCO)ccc2N1C(=O)Cc1ccc(OC)cc1", "cat": "inactive"}
{"structureSmiles": "C#CCNS(=O)(=O)N(C)C", "cat": "inactive"}
{"structureSmiles": "C=C(C(=O)CC[C@H](OC(=O)c1cccnc1)c1ccc(OCCO)cc1)C(C)C", "cat": "active"}
{"structureSmiles": "COc1ccc([Si](C)(C)[C@@H]2[C@@H](CCO)O[C@]3(C(=O)N(Cc4ccc(N5C(=O)c6ccccc6Oc6ccccc65)cc4)c4ccccc43)[C@H]2C)cc1", "cat": "inactive"}
{"structureSmiles": "COCCOC(=O)N1C(=O)[C@@]2(c3cc(C#CCNC(N)=O)ccc31)[C@H](c1ccc(OCCO)cc1)N1[C@H](c3ccccc3)[C@H](c3ccccc3)OC(=O)[C@H]1[C@@H]2C(=O)N1CCN(c2ncccn2)CC1", "cat": "inactive"}

* * *

Assay: blockers of DNA damage checkpoint Chk1 activation – imaging, HeLa, hydroxyurea, phospho-Chk1 nuclear intensity, primary screen (AID 1187); also: test concentration not given here
Settings: hydroxyurea-induced phospho-Chk1 immunofluorescence imaging, higher = more signal
Is z-score at least -0.4? Then condition met. If not, condition not met.

{"compound": "CN1C(=O)C2C=CC(C(O)C3CCCCC3)N(N(c3ccccc3)c3ccccc3)C2C1=O (stereo not drawn)", "cat": "condition met"}
{"compound": "CC(C)CNC(=O)[C@@]1(C)c2ccccc2C(=O)N(Cc2ccccc2)[C@H]1c1ccc(CO)cc1", "cat": "condition met"}
{"compound": "COCCCNC(=O)[C@]1(CCS(=O)(=O)c2ccccc2)N=C(c2ccc(OCCCO)cc2)O[C@@H]1c1ccccc1", "cat": "condition not met"}
{"compound": "C[C@@]1([C@@H](NC(=O)c2cccs2)c2ccc(-c3ccccc3)cc2)C[C@H]1C1CCCCC1", "cat": "condition not met"}
{"compound": "COc1cc(C(O)C2C=CC3C(=O)NC(=O)C3N2Nc2ccc(Cl)cc2Cl)cc(OC)c1OC (stereo not drawn)", "cat": "condition met"}
{"compound": "CC(C)CNC(=O)[C@@]1(c2ccc([N+](=O)[O-])cc2)CC(=O)N(C(C)C)[C@@H]1c1ccc(CO)cc1", "cat": "condition met"}
{"compound": "O=C1C2C=CC(C(O)c3ccccn3)N(Nc3ccccc3)C2C(=O)N1c1ccccc1 (stereo not drawn)", "cat": "condition not met"}

* * *

Target: Follistatin-related protein 3 (Homo sapiens)
Experiment: compounds binding follistatin-related protein 3 – biochemical, small-molecule microarray, 635 nm fluorescence, primary screen (AID 1105);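 also: score merges emission near 667 nm and signal to noise per printed spot across three slides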
Settings: FSTL3 binding, higher = more signal

{"molecule": "C=CC[C@]1(C(=O)N2CCOCC2)N=C(c2ccc(OCCCO)cc2)O[C@H]1c1ccccc1CN=[N+]=[N-]", "composite z-score": 0.879}
{"molecule": "COc1cc2c(cc1OC)CN(C(=O)[C@@H]1[C@H]3C(=O)O[C@H](c4ccccc4)[C@H](c4ccccc4)N3[C@H](c3ccc(OCCO)cc3)[C@@]13C(=O)Nc1ccc(C#CCCO)cc13)CC2", "composite z-score": 1.23}
{"molecule": "O=[N+]([O-])c1ccc(C[n+]2ccc(-c3ccc(CO)cc3)cc2)o1", "composite z-score": 1.45}
{"molecule": "COc1ccc(C#Cc2ccc3c(c2)[C@]2(C(=O)N3)[C@H](c3ccc(OCCO)cc3)N3[C@H](c4ccccc4)[C@H](c4ccccc4)OC(=O)[C@H]3[C@@H]2C(=O)N2CCN(c3ncccn3)CC2)cc1", "composite z-score": 0.602}
{"molecule": "C=CC[C@]1(C(=O)N(C)C)N=C(c2ccc(OCCCO)cc2)O[C@H]1c1ccccc1", "composite z-score": 0.479}
{"molecule": "CN1C(=O)C2C=CC(C(O)COCc3ccccc3)N(Nc3ccccc3)C2C1=O (stereo not given)", "composite z-score": 1.06}
{"molecule": "CCOC(=O)C[C@H]1[C@H](OC(=O)c2ccccc2-c2ccccc2)[C@@H](NC(=O)c2ccccc2)c2cc(OCCCO)ccc2N1C(=O)Cc1ccc(OC)cc1", "composite z-score": -0.183}
{"molecule": "C=CCC(OC(C)=O)[C@@H]1[C@@H](N(Cc2cccc3ccccc23)C(=O)c2ccc(C)cc2)c2cc(OCCCO)ccc2N1C(=O)c1ccc2ccccc2c1 (stereo not given in full)", "composite z-score": 0.421}
{"molecule": "C[N+](C)(C)CCCCNC(=O)[C@H]1C[C@H]2C(=O)NCC(=O)N2[C@H]1c1ccc(O)cc1", "composite z-score": 1.44}
{"molecule": "COCCCNC(=O)[C@@]1(C)c2ccccc2C(=O)N(c2ccc(C)cn2)[C@H]1c1ccc(CO)cc1", "composite z-score": -0.551}
{"molecule": "C=CCOc1ccc([C@@H]2CC=C(C(=O)OCC)[C@H](c3cccc(Br)c3)N2S(=O)(=O)c2ccc(C)cc2)cc1", "composite z-score": 0.167}
{"molecule": "C=C(/C(=C/C[C@@H](OC(=O)c1ccncc1)c1ccccc1OCCO)c1cnc2ccccc2c1)C(C)C", "composite z-score": 1.61}
{"molecule": "COC(=O)[C@@]1(Cc2ccc(F)cc2)[C@H]2c3cc(C(=O)N(C)C)n(Cc4ccc(C)c(F)c4F)c3C[C@H]2CN1C(=O)c1ccccc1", "composite z-score": -0.0326}
{"molecule": "CC(C)(C)OC(=O)CC[C@]1(C(=O)N2CCCCC2)N=C(c2ccc(OCCCO)cc2)O[C@H]1c1ccccc1CN=[N+]=[N-]", "composite z-score": 1.41}
{"molecule": "O=C(O)[C@@]1(Cc2ccccc2)COC(c2ccc(OCCCO)cc2)=N1", "composite z-score": -1.14}
{"molecule": "O=C1O[C@@H](c2ccccc2)[C@@H](c2ccccc2)N2[C@@H](c3ccc(O)cc3)[C@]3(C(=O)Nc4ccc(C#CC5=CCCCC5)cc43)[C@@H](C(=O)Nc3nc4ccccc4s3)[C@H]12", "composite z-score": 1.31}
{"molecule": "C=C(COC)/C(=C/C[C@@H](OC(=O)c1ccncc1)c1cccc(OCCO)c1)c1cc(C(=O)OC)ccc1OC", "composite z-score": 0.902}
{"molecule": "CO[C@H]1O[C@H](CO)[C@@H](OC(=O)Nc2cccc(F)c2)[C@H](OC(=O)Nc2ccc3c(c2)OCO3)[C@H]1OC(=O)Nc1ccc2c(c1)OCO2", "composite z-score": 0.55}
{"molecule": "C#CCOC(=O)N[C@H](C=CCCCC)c1ccccc1", "composite z-score": -0.484}
{"molecule": "CN1C(=O)C2C=CC(C(O)c3ccc(F)cc3)N(N3CCCCC3)C2C1=O (stereo not given)", "composite z-score": -0.0733}
{"molecule": "C[C@@]1([C@@H](NC(=O)c2cccs2)c2ccc(-c3ccccc3)cc2)C[C@H]1C1CCCCC1", "composite z-score": -0.671}
{"molecule": "CC(C)CCC[C@@H](C)[C@H]1CC[C@@]2(C)C3=C(CC[C@]12C)[C@@]1(C)CC[C@H](OC(=O)C(C)(C)C)C(C)(C)C1CC3 (stereo not given in full)", "composite z-score": 0.619}
{"molecule": "COc1ccc(CCNC(=O)[C@@H]2c3ccccc3C(=O)N(Cc3ccccc3)[C@H]2c2ccc(CO)cc2)cc1", "composite z-score": 0.84}
{"molecule": "OCCCC1=CC(c2cccs2)N(Cc2cccc(OC(F)(F)F)c2)CC1 (stereo not given)", "composite z-score": -0.537}
{"molecule": "COCCCNC(=O)[C@@]1(Cc2ccccc2I)c2ccccc2C(=O)N(Cc2ccccc2Cl)[C@H]1c1ccc(CO)cc1", "composite z-score": 0.3}
{"molecule": "C=C(/C(=C/C[C@@H](OC(C)=O)c1ccccc1OCCO)c1cnc2ccccc2c1)C(C)C", "composite z-score": 1.15}
{"molecule": "COc1ccc(C#Cc2ccc3c(c2)[C@]2(C(=O)N3)[C@H](C(=O)O)[C@H]3C(=O)O[C@H](c4ccccc4)[C@H](c4ccccc4)N3[C@@H]2c2ccc(OCCO)cc2)cc1", "composite z-score": 0.486}
{"molecule": "CN(C)C(=O)[C@@]1(Cc2ccccc2N=[N+]=[N-])N=C(c2ccc(OCCCO)cc2)O[C@H]1c1ccccc1N=[N+]=[N-]", "composite z-score": 0.347}
{"molecule": "COCCCNC(=O)[C@]1(Cc2ccccc2)N=C(c2ccc(OCCCO)cc2)O[C@@H]1c1ccccc1N=[N+]=[N-]", "composite z-score": 0.481}
{"molecule": "O=C1c2ccccc2[C@](Cc2ccccc2I)(C(=O)NCC(F)(F)F)[C@H](c2ccc(CO)cc2)N1Cc1ccccc1", "composite z-score": 0.871}
